SYSTEM TESTED: Androgen receptor (Homo sapiens, UniProt P10275)
Sequence (P10275 whole entry): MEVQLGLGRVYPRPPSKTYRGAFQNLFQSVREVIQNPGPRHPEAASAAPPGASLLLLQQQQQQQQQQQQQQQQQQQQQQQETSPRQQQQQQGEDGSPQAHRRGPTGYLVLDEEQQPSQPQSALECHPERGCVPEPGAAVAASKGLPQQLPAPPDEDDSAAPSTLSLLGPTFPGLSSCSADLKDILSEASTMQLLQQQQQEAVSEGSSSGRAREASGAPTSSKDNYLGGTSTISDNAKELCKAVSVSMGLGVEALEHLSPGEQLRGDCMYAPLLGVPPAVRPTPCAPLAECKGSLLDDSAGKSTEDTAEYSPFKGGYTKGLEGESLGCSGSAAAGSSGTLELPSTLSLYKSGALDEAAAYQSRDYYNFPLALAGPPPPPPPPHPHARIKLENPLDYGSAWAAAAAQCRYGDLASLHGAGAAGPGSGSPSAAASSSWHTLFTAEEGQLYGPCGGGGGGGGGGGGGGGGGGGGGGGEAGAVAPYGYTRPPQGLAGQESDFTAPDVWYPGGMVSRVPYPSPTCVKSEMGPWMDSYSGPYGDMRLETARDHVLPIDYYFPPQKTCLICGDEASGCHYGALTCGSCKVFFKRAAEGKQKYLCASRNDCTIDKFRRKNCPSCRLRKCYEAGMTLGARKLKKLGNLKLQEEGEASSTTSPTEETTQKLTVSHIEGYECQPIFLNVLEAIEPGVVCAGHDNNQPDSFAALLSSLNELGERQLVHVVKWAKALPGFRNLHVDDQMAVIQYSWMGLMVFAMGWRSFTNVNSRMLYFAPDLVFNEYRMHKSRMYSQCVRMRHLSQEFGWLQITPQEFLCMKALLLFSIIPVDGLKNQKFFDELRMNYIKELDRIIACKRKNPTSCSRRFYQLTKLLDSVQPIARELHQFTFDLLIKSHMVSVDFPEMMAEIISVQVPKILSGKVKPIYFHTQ
Compiled notes: published IC50 values involving Androgen receptor (Homo sapiens, UniProt P10275).
Write the number in nM without appending the unit.

Sample answers from the record:
COc1cccc(S(=O)(=O)Nc2ccc(-c3ccc4c(cnn4-c4ccc(F)cc4)c3)c(C(F)(F)F)c2)c1; 3160
CC1=C(C#N)[C@@H](c2ccc(F)cc2Cl)C(C(=O)OC(C)(C)C)=C(C)N1; 246

Challenge: In one line, give reported IC50 of the entry O=C1[C@@H]2C3C=CC(C3)[C@@H]2C(=O)N1c1ccc2ccccc2c1 .
Response given: 1210
